Molecular target: human neuropeptide Y5 receptor (Homo sapiens)
Construct: expressed in transfected cells; host or cells: HEK-293 (human embryonic kidney cells), stably transfected, G-418 selected; membranes
Sequence (Q15761 whole entry): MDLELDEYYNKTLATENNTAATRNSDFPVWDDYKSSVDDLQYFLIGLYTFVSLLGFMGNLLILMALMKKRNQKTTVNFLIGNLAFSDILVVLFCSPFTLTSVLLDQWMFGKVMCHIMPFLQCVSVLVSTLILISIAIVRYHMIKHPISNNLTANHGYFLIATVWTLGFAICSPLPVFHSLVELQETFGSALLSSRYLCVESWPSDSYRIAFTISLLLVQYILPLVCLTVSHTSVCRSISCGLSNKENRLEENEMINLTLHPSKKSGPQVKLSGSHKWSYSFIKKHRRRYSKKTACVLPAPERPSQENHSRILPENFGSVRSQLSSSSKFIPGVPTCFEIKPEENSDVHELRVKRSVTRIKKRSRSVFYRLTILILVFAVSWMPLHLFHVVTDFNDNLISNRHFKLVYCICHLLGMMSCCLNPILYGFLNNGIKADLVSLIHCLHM
Experiment: NPY5 HTS centrifugation assay: competition with 125I-PYY for binding to membranes of NPY5-transfected HEK-293 cells
Conditions: inhibition of 125I-PYY binding; values given in μM; read-out: IC50 HNPY5r
Procedure: The compounds described in this invention were evaluated for binding to the human neuropeptide Y5 receptor. […] A competition binding assay, known to those skilled in the art, was used in which the compounds of formula (I) compete with ^125I-PYY for binding to cell membranes. […] Bound ^125I-PYY was determined by centrifugation of membranes, aspirating supernatant, washing away residual ^125I-PYY and subsequently counting the bound sample in a g-counter. […]
PROPERTY_LABEL: IC50 (µM)
Numbers only; they are read as µM.

Known results for compounds:
>>> print(df.to_string())
                                   compound  obs_value
0  Cc1ccc(-n2nc(C(=O)Nc3cc(Cl)cc(Cl)c3)cc2C)cc1 [Compound 2]          3
1  Cc1cc(C(=O)Nc2cc(C(F)(F)F)cc(C(F)(F)F)c2)nn1-c1cc(Cl)cc(Cl)c1 [Compound 95]          5
2  Cc1cc(C(=O)Nc2cccc([N+](=O)[O-])c2)nn1-c1cccc(C(F)(F)F)c1 [Compound 154]          1
3  Cc1ccc(-n2nc(C(=O)Nc3ccc(F)cc3)cc2C)cc1 [Compound 1]          8
4  Cc1cc(C(=O)Nc2ccc3c(c2)Cc2ccccc2-3)nn1-c1cccc(C(F)(F)F)c1 [Compound 109]          6
5  Cc1cc(C(=O)Nc2cnc3ccccc3c2)nn1-c1cccc(C(F)(F)F)c1 [Compound 108]         13

INPUT: Return reported IC50; argument: Cc1cc(C(=O)Nc2ccc3cccnc3c2)nn1-c1cccc(C(F)(F)F)c1 [Compound 107]
OUTPUT: 4

INPUT: Return reported IC50; argument: Cc1cc(C(=O)NCc2nc3ccccc3[nH]2)nn1-c1cccc(C(F)(F)F)c1 [Compound 104]
OUTPUT: 14

INPUT: Return reported IC50; argument: Cc1cc(C(=O)Nc2ccccc2)nn1-c1cccc(C(F)(F)F)c1 [Compound 87]
OUTPUT: 1

INPUT: Return reported IC50; argument: Cc1cc(C(=O)Nc2cccc(Cl)c2Cl)nn1-c1cccc(C(F)(F)F)c1 [Compound 93]
OUTPUT: 1
